Recorded pIC50 by entry
molecular target: human liver cathepsin L (Homo sapiens); construct: 8.7 ng/mL human liver cathepsin L (Calbiochem 219402); purchased Calbiochem 219402; host or cells: human liver; test: Cathepsin L assay, IC50 determination; type: biochemical; conditions: Table 1; read-out: IC50 Cat L
Sequence (P07711 114-288 limits assumed): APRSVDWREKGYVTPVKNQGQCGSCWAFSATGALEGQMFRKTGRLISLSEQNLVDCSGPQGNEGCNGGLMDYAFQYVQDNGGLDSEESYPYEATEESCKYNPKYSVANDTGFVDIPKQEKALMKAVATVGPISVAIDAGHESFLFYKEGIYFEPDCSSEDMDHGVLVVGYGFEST
Sequence (P07711 292-333 limits assumed): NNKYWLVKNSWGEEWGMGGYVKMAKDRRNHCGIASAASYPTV
Worth noting: pIC50 values are minus log10 of concentrations stated in mol/L.

Some compounds with recorded pIC50:
Task item: Look at this compound and give its reported pIC50. CCc1ccccc1NC(=O)CSC(=O)NNC(=O)[C@H](Cc1ccc(OCc2ccccc2)cc1)NC(=O)OC(C)(C)C [Compound No. 36]
Reply: 6.08

Task item: Look at this compound and give its reported pIC50. CCOC(=O)c1cccc(NC(=O)CSC(=O)NNC(=O)[C@H](Cc2c[nH]c3ccccc23)NC(=O)OC(C)(C)C)c1 [Compound No. 8]
Reply: 7.21

Query compound follows.
Task item: Look at this compound and give its reported pIC50. CC(C)(C)OC(=O)N[C@@H](Cc1c[nH]c2ccccc12)C(=O)NNC(=O)SCC(=O)N1CCCc2ccccc21 [Compound No. 5]
Reply: 7.02
